Test system: SNB-75
measurement.notes: NCI tumour cell line growth inhibition, 48 h
The source made the active and inactive calls. Rule as the data show it: active = GI50 up to about 1.1 µM and inactive = higher.

molecule: O=C(c1ccccc1)C1C(C(=O)c2ccccc2)N1Cc1ccccc1 (stereo unspecified)
GI50: 13.9 µM (inactive)
//
molecule: Clc1ccc(-c2nc3cc(C45CC6CC(CC(C6)C4)C5)ccc3[nH]2)cc1
GI50: > 100 µM (inactive)
//
molecule: O=C(NO)c1ccc(OCc2ccccc2)cc1
GI50: 29.4 µM (inactive)
//
molecule: CN(Cc1cnc2nc(N)nc(N)c2n1)c1ccc(C(=O)NCCCC(=O)O)cc1
GI50: > 62.7 µM (inactive)
//
molecule: O=C(CCc1ccccc1CO)NCCc1ccccc1
GI50: 49.1 µM (inactive)
//
molecule: COc1ccc(C)cc1-c1cc(Sc2ccccc2)c(-c2cc(C)ccc2OC)o1
GI50: > 31.6 µM (inactive)
//
molecule: CN(C)Cc1cc(C=O)cc(CN(C)C)c1O
GI50: > 100 µM (inactive)
//
molecule: OC(c1cccnc1)C(F)(F)c1nc2ccccc2o1 (stereo unspecified)
GI50: > 100 µM (inactive)
//
molecule: CC(=O)O[C@H]1[C@@H]2OC(=O)[C@@](O)(CC3CCCO3)[C@@H]2CC(=O)[C@](C)(O)CC/C=C(\C)CCC[C@@H]1C (stereo partly specified)
GI50: 97.5 µM (inactive)
//
molecule: COc1ccccc1NC(=O)NS(=O)(=O)c1ccccc1
GI50: > 100 µM (inactive)
//
molecule: CCNC(=S)Nc1c(C#N)c2n(c1C(=O)OCC)CCCCC2
GI50: > 100 µM (inactive)

Value source: ChEMBL document CHEMBL1201862
